Values from patent US20220112288A1

Parameter: SKW3 FACS Binning OKT4 A488. Scope: all listed entries.
# TARGET UNDER TEST: T1, human CD4 on cells (SKW3 cells; human PBMCs) (human, UniProt P01730 26-458)
# T1 construct: whole, on cells; SKW3 CD4 knockout cells served as the negative cell line; also called hCD4
# ASSAY DETAILS: FACS binning on SKW3 cells pre-incubated with supernatant; competitor OKT4-A488, its signal read; background 2163, max binding 8200
# print the numeric value only

Examples with their reported SKW3 FACS Binning OKT4 A488 follow.
75110_04G16A (antibody, V domains shown, Tested as non-clonal AlivaMab Mouse Kappa hybridoma supernatant: human variable domains and human kappa, mouse Fc) VH: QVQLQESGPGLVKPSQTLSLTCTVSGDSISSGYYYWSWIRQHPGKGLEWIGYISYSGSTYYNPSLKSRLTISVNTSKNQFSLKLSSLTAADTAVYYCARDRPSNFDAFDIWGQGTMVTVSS VL: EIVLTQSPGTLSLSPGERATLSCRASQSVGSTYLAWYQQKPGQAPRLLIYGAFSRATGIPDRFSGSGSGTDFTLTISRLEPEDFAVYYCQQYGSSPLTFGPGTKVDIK    9640
75110_13P21A (antibody, IgG1, V domains shown, Tested as non-clonal AlivaMab Mouse Kappa hybridoma supernatant: human variable domains and human kappa, mouse Fc) VH: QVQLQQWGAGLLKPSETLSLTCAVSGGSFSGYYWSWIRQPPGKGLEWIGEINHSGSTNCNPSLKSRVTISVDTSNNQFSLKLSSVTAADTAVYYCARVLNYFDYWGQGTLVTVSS VL: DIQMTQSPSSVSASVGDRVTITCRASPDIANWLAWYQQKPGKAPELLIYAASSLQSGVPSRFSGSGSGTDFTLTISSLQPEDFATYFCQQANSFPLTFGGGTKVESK    9420
75110_04P06A (antibody, IgG1, V domains shown, Tested as non-clonal AlivaMab Mouse Kappa hybridoma supernatant: human variable domains and human kappa, mouse Fc) VH: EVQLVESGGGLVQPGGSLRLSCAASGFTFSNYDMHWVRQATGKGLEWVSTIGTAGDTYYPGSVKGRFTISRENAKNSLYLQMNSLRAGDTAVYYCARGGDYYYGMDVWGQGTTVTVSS VL: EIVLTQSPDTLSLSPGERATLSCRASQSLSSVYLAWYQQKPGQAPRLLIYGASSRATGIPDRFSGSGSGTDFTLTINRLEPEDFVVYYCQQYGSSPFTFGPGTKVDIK    10100
75110_13P22A (antibody, IgG1, V domains shown, Tested as non-clonal AlivaMab Mouse Kappa hybridoma supernatant: human variable domains and human kappa, mouse Fc) VH: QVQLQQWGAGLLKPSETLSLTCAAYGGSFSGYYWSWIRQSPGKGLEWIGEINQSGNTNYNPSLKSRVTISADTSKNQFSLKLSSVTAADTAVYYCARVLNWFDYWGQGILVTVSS VL: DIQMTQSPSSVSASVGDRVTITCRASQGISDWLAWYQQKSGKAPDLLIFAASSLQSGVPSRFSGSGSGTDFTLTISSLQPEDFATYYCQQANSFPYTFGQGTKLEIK    9370

Now, please, on to the next binder.
Reported SKW3 FACS Binning OKT4 A488 for 75110_05K11A (antibody, IgG1, V domains shown, Tested as non-clonal AlivaMab Mouse Kappa hybridoma supernatant: human variable domains and human kappa, mouse Fc) VH: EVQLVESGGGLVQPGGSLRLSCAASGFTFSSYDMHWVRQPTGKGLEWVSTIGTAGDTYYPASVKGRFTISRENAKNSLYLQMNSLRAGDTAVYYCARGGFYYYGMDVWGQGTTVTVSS VL: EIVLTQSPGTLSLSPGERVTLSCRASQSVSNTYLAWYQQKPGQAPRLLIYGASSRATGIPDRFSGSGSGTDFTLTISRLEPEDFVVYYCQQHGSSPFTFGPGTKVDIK was 9730
